# procedure.details: Apparent oral clearance in ICR mouse at 100 mg/kg, ip measured upto 24 hrs by LC-MS analysis
# Type: ADME, organism-based
# run.conditions: in vivo
metric.name: CL/F
Please provide the amount together with its unit, number first.

Prompt line: Tell me CL/F reported for O=C1c2ccccc2C(=O)c2c1cc(NS(=O)(=O)c1ccc(-c3ccccc3)cc1)c(O)c2O
Response line: 0.193 mL/min

* * *

# procedure.details: Tmax in ICR mouse at 100 mg/kg, ip measured upto 24 hrs by LC-MS analysis
# Type: ADME, organism-based
# run.conditions: in vivo
metric.name: Tmax (min)
Response body: numeric value in min, unit text excluded.

Prompt line: Tell me Tmax reported for O=C1c2ccccc2C(=O)c2c1cc(NS(=O)(=O)c1ccc(-c3ccccc3)cc1)c(O)c2O
Response line: 15

* * *

# target.entity: Phosphoglycerate mutase 1 (Homo sapiens, UniProt P18669)
# Sequence (P18669 whole entry): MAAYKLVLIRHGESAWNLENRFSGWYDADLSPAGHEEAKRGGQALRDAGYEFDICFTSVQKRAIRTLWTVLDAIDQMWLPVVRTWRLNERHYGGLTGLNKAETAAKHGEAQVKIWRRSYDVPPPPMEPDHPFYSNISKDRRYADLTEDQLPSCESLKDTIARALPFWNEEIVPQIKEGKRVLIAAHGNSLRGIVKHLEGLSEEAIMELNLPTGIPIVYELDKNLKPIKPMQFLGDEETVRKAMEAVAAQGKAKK
# procedure.details: Inhibition of human recombinant PGAM1 by measuring decrease in OD by enzyme based assay
Would you mind sorting the entries by IC50 according to these classes? b0: < 500 nM; b1: ≥ 500 nM and < 2000 nM; b2: ≥ 2000 nM

The following compounds have reported results that may help.
- compound: "O=C1c2ccccc2C(=O)c2c1cc(NS(=O)(=O)C1CCCCC1)c(O)c2O"
  answer.label: "b1"
- compound: "O=C1c2ccccc2C(=O)c2c1cc(NS(=O)(=O)c1ccc3ccccc3c1)c(O)c2O"
  answer.label: "b0"
- compound: "O=C1c2ccccc2C(=O)c2c1cc(NS(=O)(=O)c1ccc(N3CCCCC3)cc1)c(O)c2O"
  answer.label: "b0"
- compound: "O=C1c2ccccc2C(=O)c2c1cc(NS(=O)(=O)c1ccc(-c3ccc(F)cc3)cc1)c(O)c2O"
  answer.label: "b0"

Prompt line: Band for the recorded IC50 of CC1CC(C)CN(c2ccc(S(=O)(=O)Nc3cc4c(c(O)c3O)C(=O)c3ccccc3C4=O)cc2)C1 (stereo not given) ?
Response line: b2

Prompt line: Band for the recorded IC50 of Cc1ccc(S(=O)(=O)Nc2cc3c(c(O)c2O)C(=O)c2ccccc2C3=O)cc1 ?
Response line: b0

Prompt line: Band for the recorded IC50 of COc1ccc(S(=O)(=O)Nc2cc3c(c(O)c2O)C(=O)c2ccccc2C3=O)c(OC)c1 ?
Response line: b2

Prompt line: Band for the recorded IC50 of O=C1c2ccccc2C(=O)c2c1cc(NS(=O)(=O)c1ccc(Cl)s1)c(O)c2O ?
Response line: b1

Prompt line: Band for the recorded IC50 of O=C1c2ccccc2C(=O)c2c1cc(NS(=O)(=O)c1cccc3ccccc13)c(O)c2O ?
Response line: b1

* * *

# procedure.details: AUC (0 to infinity) in ICR mouse at 100 mg/kg, ip measured upto 24 hrs by LC-MS analysis
# Type: ADME, organism-based
# Design: route intraperitoneal, dose 100 mg/kg, time <=24
# run.conditions: in vivo
metric.name: AUC(0-inf) (µg·h/mL)
Response body: numeric value in µg·h/mL, unit text excluded.

Prompt line: Tell me AUC(0-inf) reported for O=C1c2ccccc2C(=O)c2c1cc(NS(=O)(=O)c1ccc(-c3ccccc3)cc1)c(O)c2O
Response line: 245

* * *

# target.entity: Phosphoglycerate mutase 1 (Homo sapiens)
# procedure.details: Inhibition of human recombinant PGAM1 by measuring decrease in OD by enzyme based assay
metric.name: pIC50
Answer as the number alone; pIC50 is minus log10 of concentration in mol/L.

Some compounds with known pIC50 results, for comparison:
- smiles.notation: "O=C1c2ccccc2C(=O)c2c1cc(NS(=O)(=O)c1cccs1)c(O)c2O"
  pIC50: 6.08
- smiles.notation: "O=C1c2ccccc2C(=O)c2c1cc(NS(=O)(=O)c1ccc(-c3ccccc3)cc1)c(O)c2O"
  pIC50: 6.60

Prompt line: Tell me pIC50 reported for O=C1c2ccccc2C(=O)c2c1cc(NS(=O)(=O)c1ccc(-c3ccc(Cl)cc3)cc1)c(O)c2O
Response line: 6.85

Prompt line: Tell me pIC50 reported for O=C1c2ccccc2C(=O)c2c1cc(NS(=O)(=O)c1ccc(Cl)c(C(F)(F)F)c1)c(O)c2O
Response line: 6.26
